test system: 598228-144-R-J1-PDC complex spheroids, viability; test: Anticancer human tumor 598228-144-R-J1-PDC patient-derived serous endometrial adenocarcinoma cell line growth inhibition [CLK]; conditions: second compound 10 µM; first compound 0.03 µM; active compounds read low;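 further: spheroids exposed to compounds for seven days before readout; 100% = DMSO vehicle control wells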
Metric: viability, T/C (%)

{"columns": ["Compound", "Subject Of Test", "Metric", "Experimental Result"],
 "data": [
  ["CC(C)CC(NC(=O)C(Cc1ccccc1)NC(=O)c1cnccn1)B(O)O (stereo unspecified) + CNC(=O)c1ccc(Nc2nc(OC3CCCC3)c3c(-c4ccc5nc(C)oc5c4)c[nH]c3n2)c(OC)c1", "598228-144-R-J1-PDC complex spheroids, viability", "viability, T/C", 1.62],
  ["CC(C)CC(NC(=O)C(Cc1ccccc1)NC(=O)c1cnccn1)B(O)O (stereo unspecified) + CN1CCN(c2cc(C(=O)Nc3cc4cc(-c5cnn(C)c5)ccc4cn3)ccn2)CC1", "598228-144-R-J1-PDC complex spheroids, viability", "viability, T/C", 0.2],
  ["NC(=O)C(=Cn1cnc(-c2cc(C(F)(F)F)cc(C(F)(F)F)c2)n1)c1cncnc1 + CNC(=O)c1ccc(Nc2nc(OC3CCCC3)c3c(-c4ccc5nc(C)oc5c4)c[nH]c3n2)c(OC)c1", "598228-144-R-J1-PDC complex spheroids, viability", "viability, T/C", 72.3],
  ["NC(=O)C(=Cn1cnc(-c2cc(C(F)(F)F)cc(C(F)(F)F)c2)n1)c1cncnc1 + CN1CCN(c2cc(C(=O)Nc3cc4cc(-c5cnn(C)c5)ccc4cn3)ccn2)CC1", "598228-144-R-J1-PDC complex spheroids, viability", "viability, T/C", 0.87],
  ["C=CC(=O)Nc1cc(Nc2nccc(-c3cn(C)c4ccccc34)n2)c(OC)cc1N(C)CCN(C)C + CNC(=O)c1ccc(Nc2nc(OC3CCCC3)c3c(-c4ccc5nc(C)oc5c4)c[nH]c3n2)c(OC)c1", "598228-144-R-J1-PDC complex spheroids, viability", "viability, T/C", 73.1],
  ["C=CC(=O)Nc1cc(Nc2nccc(-c3cn(C)c4ccccc34)n2)c(OC)cc1N(C)CCN(C)C + CN1CCN(c2cc(C(=O)Nc3cc4cc(-c5cnn(C)c5)ccc4cn3)ccn2)CC1", "598228-144-R-J1-PDC complex spheroids, viability", "viability, T/C", 1.25]
]}
